Readings of Response (%) OX1R for the listed molecules
# TESTED TARGET: human OX1R (Homo sapiens)
# Construct: expressed in transfected cells; host or cells: CHO (Chinese hamster ovary) cells, line CHOOX1R, co-expressing NFAT-luciferase
# Sequence (O43613 whole entry): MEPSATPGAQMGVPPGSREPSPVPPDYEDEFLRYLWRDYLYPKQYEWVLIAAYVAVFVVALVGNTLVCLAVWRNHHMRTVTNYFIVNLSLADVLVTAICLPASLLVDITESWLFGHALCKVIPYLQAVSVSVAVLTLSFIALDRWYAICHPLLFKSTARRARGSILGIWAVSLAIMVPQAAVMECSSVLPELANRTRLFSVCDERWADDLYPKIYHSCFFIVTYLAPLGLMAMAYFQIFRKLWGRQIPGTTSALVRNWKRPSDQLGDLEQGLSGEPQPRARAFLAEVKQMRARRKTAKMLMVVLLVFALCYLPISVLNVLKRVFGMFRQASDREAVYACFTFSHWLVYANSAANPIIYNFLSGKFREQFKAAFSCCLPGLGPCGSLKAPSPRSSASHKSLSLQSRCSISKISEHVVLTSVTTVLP
# PROTOCOL TEXT: Agonist activity against OX1R: intracellular calcium (Fura-2AM, FDSS7000) in CHOOX1R cells
# Format: cell-based
# APPLIED CONDITIONS: 10 μM test compound; relative to orexin-A as full agonist (100%)
OBSERVABLE: Response (%) OX1R

smiles_structure=COc1ccc(-c2cccc(C(=O)N(C)C)c2)cc1S(=O)(=O)Nc1cccc(NC(=O)Nc2ccc(N(C)C)nc2)c1 observable="Response (%) OX1R" op== experimental_value=10
smiles_structure=COc1ccc(-c2cccc(C(=O)N(C)C)c2)cc1S(=O)(=O)Nc1cccc(NC(=O)Nc2cc(OC)c(OC)c(OC)c2)c1 observable="Response (%) OX1R" op== experimental_value=10
smiles_structure=COc1ccc(-c2cccc(C(=O)N(C)C)c2)cc1S(=O)(=O)Nc1cccc(Nc2ccc(C(=O)N(C)C)cc2)c1 observable="Response (%) OX1R" op=< experimental_value=5
smiles_structure=COc1ccc(-c2cccc(C(=O)N(C)C)c2)cc1S(=O)(=O)Nc1cccc(NC(=O)Nc2cccc(NC(=NC(=O)OC(C)(C)C)NC(=O)OC(C)(C)C)c2)c1 observable="Response (%) OX1R" op=< experimental_value=5
smiles_structure=COc1ccc(-c2cccc(C(=O)N(C)C)c2)cc1S(=O)(=O)Nc1cccc(NC(=O)Nc2cccc(N)c2)c1 observable="Response (%) OX1R" op== experimental_value=7
smiles_structure=COc1ccc(-c2cccc(C(=O)N(C)C)c2)cc1S(=O)(=O)Nc1cccc(NC(=O)Nc2ccccc2[N+](=O)[O-])c1 observable="Response (%) OX1R" op== experimental_value=8

---

# TESTED TARGET: human OX1R (Homo sapiens)
# Construct: expressed in transfected cells; host or cells: CHO (Chinese hamster ovary) cells, line CHOOX1R, co-expressing NFAT-luciferase
# PROTOCOL TEXT: Agonist activity against OX1R: intracellular calcium (Fura-2AM, FDSS7000) in CHOOX1R cells
# Type: cell-based
# APPLIED CONDITIONS: 10 μM test compound; relative to orexin-A as full agonist (100%); read-out: Response (%) OX1R
OBSERVABLE: Emax at 10 µM

compound="COc1ccc(-c2cccc(C(=O)N(C)C)c2)cc1S(=O)(=O)Nc1cccc(Nc2c(Nc3cccc(C)c3)c(=O)c2=O)c1 [Example 80]" experimental_value="< 5%"
compound="COc1ccc(-c2cccc(C(=O)N(C)C)c2)cc1S(=O)(=O)Nc1cccc(NC(=O)c2ccccc2)c1 [Example 1]" experimental_value="< 5%"
compound="COc1ccc(-c2cccc(C(=O)N(C)C)c2)cc1S(=O)(=O)Nc1cccc(NC(=O)Nc2cccc(N(C)C)c2)c1 [Example 40]" experimental_value="< 5%"
compound="COc1ccc(-c2cccc(C(=O)N(C)C)c2)cc1S(=O)(=O)Nc1cccc(Nc2c(OC)c(=O)c2=O)c1 [Example 79]" experimental_value="< 5%"
compound="COc1ccc(-c2cccc(C(=O)N(C)C)c2)cc1S(=O)(=O)Nc1cccc(NC(=O)Nc2ccccc2)c1 [Example 37]" experimental_value="< 5%"
compound="COc1ccc(-c2cccc(C(=O)N(C)C)c2)cc1S(=O)(=O)Nc1cccc(NC(=N)Nc2ccccc2)c1 [Example 77]" experimental_value="< 5%"
compound="COc1ccc(-c2cccc(C(=O)N(C)C)c2)cc1S(=O)(=O)Nc1cccc(NC(=S)Nc2ccccc2)c1 [Example 75]" experimental_value=30%
compound="COc1ccc(-c2cccc(C(=O)N(C)C)c2)cc1S(=O)(=O)Nc1cccc(NCc2ccccc2)c1 [Example 20]" experimental_value=17%
